- target.entity: CDK2/Cyclin A (Homo sapiens)
- Construct: made in house; host or cells: CDK2: insect cells (baculovirus); cyclin A: E. coli
- test.details: Inhibition of CDK2/Cyclin A retinoblastoma kinase activity (apparent Ki)
- Assay type: biochemical
- test.conditions: read-out: CDK2 Ki
- Description: Cyclin-dependent kinase activity was measured by quantifying the enzyme-catalyzed, time-dependent incorporation of radioactive phosphate from [^32P]ATP or [^33P]ATP into a protein substrate. […] Radioactivity was quantified by exposing the dried membranes to a phosphorimager. Apparent Ki values were measured by assaying enzyme activity in the presence of different inhibitor compound concentrations and subtracting the background radioactivity measured in the absence of enzyme. […]
assay.endpoint: Ki

* CCNCc1cncc(-c2ccc3[nH]nc(-c4ncc(C(=O)N(CCN(C)C)Cc5ccccc5)[nH]4)c3c2)c1C [Example 81] | < 0.05 µM
* CCNCc1cncc(-c2ccc3[nH]nc(-c4nc(-c5ccccc5)c(C(=O)NCCCOC)[nH]4)c3c2)c1C [Example 11] | 0.05 to 0.2 µM
* CCNCc1cncc(-c2ccc3[nH]nc(-c4nc(-c5ccccc5)c(C(=O)N5CCCCC5)[nH]4)c3c2)c1C [Example 9] | > 0.2 µM
* CCNCc1cncc(-c2ccc3[nH]nc(-c4ncc(C(=O)N5C[C@@H](C)O[C@@H](C)C5)[nH]4)c3c2)c1C [Example 60] | < 0.05 µM

Inquiry: Please tell me: Ki of CCNCc1cncc(-c2ccc3[nH]nc(-c4nc5c([nH]4)CCCC5)c3c2)c1CC [Example 46] , system CDK2/Cyclin A (Homo sapiens)?
Reply text: < 0.05 µM

Inquiry: Please tell me: Ki of Cc1c(N)cncc1-c1ccc2[nH]nc(-c3nc(-c4ccccc4)c[nH]3)c2c1 [Example 39] , system CDK2/Cyclin A (Homo sapiens)?
Reply text: < 0.05 µM

Inquiry: Please tell me: Ki of c1c[nH]c(-c2n[nH]c3ccc(-c4cncc5[nH]ccc45)cc23)n1 [Example 94] , system CDK2/Cyclin A (Homo sapiens)?
Reply text: < 0.05 µM

Inquiry: Please tell me: Ki of CCNCc1cncc(-c2ccc3[nH]nc(-c4nc(-c5ccccc5)c(C(=O)NCC)[nH]4)c3c2)c1C [Example 2] , system CDK2/Cyclin A (Homo sapiens)?
Reply text: 0.05 to 0.2 µM

---

- test.details: Measurement of kinetic solubility
- test.conditions: 100 mM sodium phosphate buffer, pH 6.5, aqueous buffer, kinetic from dmso stock
assay.endpoint: solubility

* CCNCc1cncc(-c2ccc3[nH]nc(-c4nc(C(=O)NC5CN6CCC5CC6)c[nH]4)c3c2)c1C (stereo in doubt) | > 120 µg/mL
* c1ncc(-c2n[nH]c3ccc(-c4cncc5[nH]ccc45)cc23)[nH]1 | 20 to 120 µg/mL

Alright, here's another compound for you.
Inquiry: Looking for the measured solubility of "COCc1cncc(-c2ccc3[nH]nc(-c4ncc[nH]4)c3c2)c1C" , can you help?
Reply text: > 120 µg/mL

---

- System: Cyclin-dependent kinase
- test.details: Cyclin-dependent kinase inhibition, % inhibition at 10 nM (library Examples 99-270)
- Format: biochemical
- test.conditions: 10 nM compound
The entries below come with measured % Inhib @ 10 nM values attached.
# include the unit after the value

Inquiry: Please tell me: % Inhib @ 10 nM of "CCNCc1cncc(-c2ccc3[nH]nc(-c4ncc(C(=O)NCCC5CCOCC5)[nH]4)c3c2)c1C" , system Cyclin-dependent kinase?
Reply text: 34%

Inquiry: Please tell me: % Inhib @ 10 nM of "CCNCc1cncc(-c2ccc3[nH]nc(-c4ncc(C(=O)N5CCC(O)(CN6CCOCC6)CC5)[nH]4)c3c2)c1C" , system Cyclin-dependent kinase?
Reply text: 18%

Inquiry: Please tell me: % Inhib @ 10 nM of CCNCc1cncc(-c2ccc3[nH]nc(-c4ncc(C(=O)NC(CO)c5cccnc5)[nH]4)c3c2)c1C (stereo not drawn) , system Cyclin-dependent kinase?
Reply text: 55%

Inquiry: Please tell me: % Inhib @ 10 nM of "C=C(C)CN(CC)C(=O)c1cnc(-c2n[nH]c3ccc(-c4cncc(CNCC)c4C)cc23)[nH]1" , system Cyclin-dependent kinase?
Reply text: 69%

Inquiry: Please tell me: % Inhib @ 10 nM of "CCNCc1cncc(-c2ccc3[nH]nc(-c4ncc(C(=O)N5CCN(CC(=O)N6CCOCC6)CC5)[nH]4)c3c2)c1C" , system Cyclin-dependent kinase?
Reply text: 26%

Inquiry: Please tell me: % Inhib @ 10 nM of "C=CCN(CC=C)CCN1CCN(C(=O)c2cnc(-c3n[nH]c4ccc(-c5cncc(CNCC)c5C)cc34)[nH]2)CC1" , system Cyclin-dependent kinase?
Reply text: 22%

Inquiry: Please tell me: % Inhib @ 10 nM of "CCNCc1cncc(-c2ccc3[nH]nc(-c4ncc(C(=O)N(CCOC)CCOC)[nH]4)c3c2)c1C" , system Cyclin-dependent kinase?
Reply text: 58%

Inquiry: Please tell me: % Inhib @ 10 nM of "CCNCc1cncc(-c2ccc3[nH]nc(-c4ncc(C(=O)N5CCSCC5)[nH]4)c3c2)c1C" , system Cyclin-dependent kinase?
Reply text: 60%

Inquiry: Please tell me: % Inhib @ 10 nM of "CCNCc1cncc(-c2ccc3[nH]nc(-c4ncc(C(=O)NCc5ccccc5OC)[nH]4)c3c2)c1C" , system Cyclin-dependent kinase?
Reply text: 78%

Inquiry: Please tell me: % Inhib @ 10 nM of "CCNCc1cncc(-c2ccc3[nH]nc(-c4ncc(C(=O)N5CCN(Cc6ccc(OC)cc6)CC5)[nH]4)c3c2)c1C" , system Cyclin-dependent kinase?
Reply text: 57%
